target: recombinant human liver glycogen phosphorylase (HLGPa) (Homo sapiens, UniProt P06737); test: Measurement of liver glycogen phosphorylase activity (enzyme inhibitory activity against HLGPa); settings: Sf9 cell lysate expressing recombinant enzyme; reverse reaction (glycogen synthesis from G1-P), phosphate by malachite green, 60 min room temperature
quantity-name: IC50 (nM)
Kindly answer with a numeric value in nM, unit omitted.

Examples with their reported IC50 follow.
compound	IC50, nM
O=C(NN1C(=O)CCN(c2ccccn2)C1=O)c1cc2cc(Cl)ccc2[nH]1 [Example 3-6]	190
N=C(NNC(=O)c1cc2cc(Cl)ccc2[nH]1)c1ccccn1 [Example 1-136]	270
Cc1ccc(C(=O)NNC(=O)c2cc3cc(Cl)ccc3[nH]2)s1 [Example 1-88]	20
Nc1ccsc1C(=O)NNC(=O)c1cc2cc(Cl)ccc2[nH]1 [Example 1-101]	35

## Input Dear colleague, I am looking for the recorded IC50 of the following compound: N=C(NNC(=O)c1cc2cc(Cl)ccc2[nH]1)c1cccc(F)c1 [Example 1-132]
## Output 110

## Input Dear colleague, I am looking for the recorded IC50 of the following compound: O=C(NN1C(=O)CCN(c2cccc(F)c2)C1=O)c1cc2cc(Cl)ccc2[nH]1 [Example 3-7]
## Output 50

## Input Dear colleague, I am looking for the recorded IC50 of the following compound: Cc1ccc2[nH]c(C(=O)Nn3c(=O)[nH]c4ccc(O)cc4c3=O)cc2c1 [Example 2-28]
## Output 56

## Input Dear colleague, I am looking for the recorded IC50 of the following compound: O=C(NNC(=O)c1cc2cc(Cl)ccc2[nH]1)c1cc(F)c(F)c(F)c1 [Example 1-93]
## Output 270

## Input Dear colleague, I am looking for the recorded IC50 of the following compound: N=C(NNC(=O)c1cc2cc(Cl)ccc2[nH]1)c1c(F)cccc1F [Example 6-25, methanesulfonate]
## Output 330

====

Target: recombinant human liver glycogen phosphorylase (HLGPa) (Homo sapiens)
Test: Measurement of liver glycogen phosphorylase activity (enzyme inhibitory activity against HLGPa)
Conditions: Sf9 cell lysate expressing recombinant enzyme; reverse reaction (glycogen synthesis from G1-P), phosphate by malachite green, 60 min room temperature
From the text: Measurement Method of Liver Glycogen Phosphorylase Activity […]
Labelling: IC50 reported below 0.08 µM becomes met; at or above becomes not met.

Field: example entries. Status: answers known.
item-smiles	target-or-test-system	answer-label
CC(C)c1ccc2[nH]c(C(=O)Nn3c(=O)[nH]c4ccccc4c3=O)cc2c1	recombinant human liver glycogen phosphorylase (HLGPa) (Homo sapiens)	not met
O=C(O)COc1ccccc1C(=O)NNC(=O)c1cc2cc(Cl)ccc2[nH]1	recombinant human liver glycogen phosphorylase (HLGPa) (Homo sapiens)	met
O=C(NN1C(=O)N[C@H](Cc2ccccc2)C1=O)c1cc2cc(Cl)ccc2[nH]1	recombinant human liver glycogen phosphorylase (HLGPa) (Homo sapiens)	not met
Nc1cc(F)c(F)cc1C(=O)NNC(=O)c1cc2cc(Cl)ccc2[nH]1	recombinant human liver glycogen phosphorylase (HLGPa) (Homo sapiens)	not met
Cc1ccccc1N1CCC(=O)N(NC(=O)c2cc3cc(Cl)ccc3[nH]2)C1=O	recombinant human liver glycogen phosphorylase (HLGPa) (Homo sapiens)	not met
O=C(NNC(=O)c1c(Cl)cccc1Cl)c1cc2cc(Cl)ccc2[nH]1	recombinant human liver glycogen phosphorylase (HLGPa) (Homo sapiens)	not met

## Input Say whether its IC50 is strictly beneath 0.08 µM. Entry: `Nc1cc(Cl)ccc1C(=O)NNC(=O)c1cc2cc(Cl)ccc2[nH]1`
## Output met

====

Target: recombinant human liver glycogen phosphorylase (HLGPa) (Homo sapiens, UniProt P06737)
Sequence (P06737 1-847): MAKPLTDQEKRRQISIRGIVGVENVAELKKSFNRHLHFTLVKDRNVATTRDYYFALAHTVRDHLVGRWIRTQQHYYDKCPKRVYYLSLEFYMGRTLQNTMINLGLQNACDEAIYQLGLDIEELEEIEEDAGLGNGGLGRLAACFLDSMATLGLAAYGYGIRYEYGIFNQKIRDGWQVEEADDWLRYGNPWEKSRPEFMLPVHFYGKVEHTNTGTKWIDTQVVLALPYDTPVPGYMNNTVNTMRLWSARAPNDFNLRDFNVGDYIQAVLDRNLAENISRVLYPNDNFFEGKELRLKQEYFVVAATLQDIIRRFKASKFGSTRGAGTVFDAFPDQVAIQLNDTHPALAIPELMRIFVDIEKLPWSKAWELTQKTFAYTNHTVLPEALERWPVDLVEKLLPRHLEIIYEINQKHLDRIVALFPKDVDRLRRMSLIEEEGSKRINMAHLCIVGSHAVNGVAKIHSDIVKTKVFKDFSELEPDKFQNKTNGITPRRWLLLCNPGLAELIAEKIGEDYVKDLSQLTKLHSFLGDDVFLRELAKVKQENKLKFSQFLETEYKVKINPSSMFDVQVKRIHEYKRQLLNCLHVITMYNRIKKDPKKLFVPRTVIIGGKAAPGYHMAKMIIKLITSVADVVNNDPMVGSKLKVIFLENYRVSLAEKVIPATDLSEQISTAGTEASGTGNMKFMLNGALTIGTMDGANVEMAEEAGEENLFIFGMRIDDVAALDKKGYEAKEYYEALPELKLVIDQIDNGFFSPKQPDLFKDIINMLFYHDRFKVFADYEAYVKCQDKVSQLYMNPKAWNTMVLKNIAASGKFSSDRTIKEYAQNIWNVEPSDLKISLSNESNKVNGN
Experiment: Measurement of liver glycogen phosphorylase activity (enzyme inhibitory activity against HLGPa)
Details: Sf9 cell lysate expressing recombinant enzyme; reverse reaction (glycogen synthesis from G1-P), phosphate by malachite green, 60 min room temperature
Description: Measurement Method of Liver Glycogen Phosphorylase Activity […]
# reported pIC50; entries follow
Field pIC50 (float): negative decimal logarithm of the concentration in molar.

molecule	pIC50
O=C(Nc1ccccc1C(=O)NNC(=O)c1cc2cc(Cl)ccc2[nH]1)OCc1ccccc1 [Example 1-110]	7.46

Turning to the following molecule.
## Input Dear colleague, I am looking for the recorded pIC50 of the following molecule: Cc1ccc2[nH]c(C(=O)NNC(=O)c3ccc(F)cc3N)cc2c1 [Example 1-63]
## Output 7.55

====

Biological target: recombinant human liver glycogen phosphorylase (HLGPa) (Homo sapiens, UniProt P06737)
Experiment: Measurement of liver glycogen phosphorylase activity (enzyme inhibitory activity against HLGPa)
Settings: Sf9 cell lysate expressing recombinant enzyme; reverse reaction (glycogen synthesis from G1-P), phosphate by malachite green, 60 min room temperature
Excerpt: Measurement Method of Liver Glycogen Phosphorylase Activity […]
quantity-name: log10 of IC50 (log10 of the value in nM)
Values reflect log10 of reported IC50 (nM).

item-smiles	data-value
Nc1ccccc1C(=O)NNC(=O)c1cc2cc(Cl)ccc2[nH]1	1.11
CC(C)(COC(=O)Nc1ccccc1C(=O)NNC(=O)c1cc2cc(Cl)ccc2[nH]1)C(=O)O	1.57
O=C(NNC(=O)c1cc(F)c(F)c(F)c1F)c1cc2cc(Cl)ccc2[nH]1	2.72
CC(=O)Oc1ccc2[nH]c(=O)n(NC(=O)c3cc4cc(C)ccc4[nH]3)c(=O)c2c1	2.43
COc1cccc(C(=O)NNC(=O)c2cc3cc(Cl)ccc3[nH]2)c1	1.86

Turning to the following molecule.
## Input Dear colleague, I am looking for the recorded log10 of IC50 of the following molecule: `O=C(NNC(=O)c1cc2cc(Cl)ccc2[nH]1)c1ccc[nH]1`
## Output 2.60

====

# reported IC50; entries follow
biological target: recombinant human liver glycogen phosphorylase (HLGPa) (Homo sapiens, UniProt P06737); experiment: Measurement of liver glycogen phosphorylase activity (enzyme inhibitory activity against HLGPa); details: Sf9 cell lysate expressing recombinant enzyme; reverse reaction (glycogen synthesis from G1-P), phosphate by malachite green, 60 min room temperature
Kindly answer with a numeric value in µM, unit omitted.

compound	scale-unit	IC50
Cc1ccc2[nH]c(C(=O)NNC(=O)c3ccccc3N)cc2c1 [Example 1-62]	µM	0.088

## Input Dear colleague, I am looking for the recorded IC50 of the following compound: Cc1ccc2[nH]c(C(=O)NNC(=O)c3ccccc3N)cc2c1 [Example 6-28, p-toluenesulfonate]
## Output 0.25

## Input Dear colleague, I am looking for the recorded IC50 of the following compound: `CN(NC(=O)c1cc2cc(Cl)ccc2[nH]1)C(=O)C1CCCCC1`
## Output 0.041

## Input Dear colleague, I am looking for the recorded IC50 of the following compound: `CC(=O)Nc1ccccc1C(=O)NNC(=O)c1cc2cc(Cl)ccc2[nH]1`
## Output 0.66

## Input Dear colleague, I am looking for the recorded IC50 of the following compound: `Nc1cc(F)ccc1C(=O)NNC(=O)c1cc2cc(Br)ccc2[nH]1`
## Output 0.028

## Input Dear colleague, I am looking for the recorded IC50 of the following compound: `Nc1cnccc1C(=O)NNC(=O)c1cc2cc(Cl)ccc2[nH]1`
## Output 0.31

## Input Dear colleague, I am looking for the recorded IC50 of the following compound: `O=C(NNC(=O)c1cc2cc(F)ccc2[nH]1)c1ccccc1`
## Output 0.073

## Input Dear colleague, I am looking for the recorded IC50 of the following compound: N=C(NNC(=O)c1cc2cc(Cl)ccc2[nH]1)c1cccc(F)c1 [Example 1-127]
## Output 0.084

## Input Dear colleague, I am looking for the recorded IC50 of the following compound: `Cc1ccc2[nH]c(C(=O)NNC(=O)c3ccsc3)cc2c1`
## Output 0.054
